tested on: Salm. ent. Gaertner; assay: Minimum inhibitory concentration, Salm. ent. Gaertner; type: cell-based; settings: Salm. ent. Gaertner; read-out: Minimum Inhibitory Concentration
Measured MIC of individual entries
Report as a plain number; the unit mg/L is understood.

In the examples that follow, each entry is paired with its recorded MIC.
COC1(NC(=O)CSCCO)C(=O)N2C(C(=O)O)=C(CSc3nnnn3C)CSC21 (centres unmarked) [HOCH2 CH2 S]; 1.5
COC1(NC(=O)COc2ccon2)C(=O)N2C(C(=O)O)=C(CSc3nnnn3C)CSC21 (centres unmarked); 1.5
COC1(NC(=O)CSc2ccon2)C(=O)N2C(C(=O)O)=C(CSc3nnnn3C)CSC21 (centres unmarked); 0.8

IN: Requested field: MIC. Item: COC1(NC(=O)CS(=O)(=O)CCC#N)C(=O)N2C(C(=O)O)=C(CSc3nnnn3C)CSC21 (centres unmarked) [NCCH2 CH2 SO2]
OUT: 0.8

IN: Requested field: MIC. Item: CC(=O)OCC1=C(C(=O)O)N2C(=O)[C@@H](NC(=O)Cc3cccs3)[C@H]2SC1 [Cephalothin, reference compound]
OUT: 6.2

IN: Requested field: MIC. Item: COC1(NC(=O)C[n+]2cc([O-])on2)C(=O)N2C(C(=O)O)=C(CSc3nnnn3C)CSC21 (centres unmarked)
OUT: 0.8

----------
Target or system Klebsiella 846; recorded quantity MIC.

In the examples that follow, each entry is paired with its recorded MIC.
COC1(NC(=O)CSCN=[N+]=[N-])C(=O)N2C(C(=O)O)=C(CSc3nnnn3C)CSC21 (stereo not shown); > 200 µg/mL
COC1(NC(=O)CSc2ccon2)C(=O)N2C(C(=O)O)=C(CSc3nnnn3C)CSC21 (stereo not shown); > 400 µg/mL
COC1(NC(=O)CSCCO)C(=O)N2C(C(=O)O)=C(CSc3nnnn3C)CSC21 (stereo not shown); 400 µg/mL

IN: Requested field: MIC. Item: COC1(NC(=O)Cc2ccccc2)C(=O)N2C(C(=O)O)=C(COC(N)=O)CSC21 (stereo not shown) [C6 H5, reference compound]
OUT: > 400 µg/mL

IN: Requested field: MIC. Item: COC1(NC(=O)C[n+]2cc([O-])on2)C(=O)N2C(C(=O)O)=C(CSc3nnnn3C)CSC21 (stereo not shown)
OUT: > 200 µg/mL

IN: Requested field: MIC. Item: CC(=O)OCC1=C(C(=O)O)N2C(=O)[C@@H](NC(=O)Cc3cccs3)[C@H]2SC1 [Cephalothin, reference compound]
OUT: > 200 µg/mL

----------
Target or system Sh. flexneri 2a; recorded quantity MIC.
Report as a plain number; the unit µg/mL is understood.

CC(=O)OCC1=C(C(=O)O)N2C(=O)[C@@H](NC(=O)Cc3cccs3)[C@H]2SC1 [Cephalothin, reference compound]; 12.5
CCS(=O)(=O)CC(=O)N[C@]1(OC)C(=O)N2C(C(=O)O)=C(CSc3nnnn3C)CS[C@@H]21; 1.5
COC1(NC(=O)CSc2ccon2)C(=O)N2C(C(=O)O)=C(CSc3nnnn3C)CSC21 (stereo not shown); 3.1

IN: Under Sh. flexneri 2a: MIC value of `CO[C@@]1(NC(=O)CSCN=[N+]=[N-])C(=O)N2C(C(=O)O)=C(COC(N)=O)CS[C@@H]21` ?
OUT: 3.1

IN: Under Sh. flexneri 2a: MIC value of COC1(NC(=O)Cc2ccccc2)C(=O)N2C(C(=O)O)=C(COC(N)=O)CSC21 (stereo not shown) [C6 H5, reference compound] ?
OUT: 12.5

IN: Under Sh. flexneri 2a: MIC value of C#CCSCC(=O)NC1(OC)C(=O)N2C(C(=O)O)=C(CSc3nnnn3C)CSC21 (stereo not shown) ?
OUT: 3.1

IN: Under Sh. flexneri 2a: MIC value of COC1(NC(=O)CS(C)(=O)=O)C(=O)N2C(C(=O)O)=C(CSc3nnnn3C)CSC21 (stereo not shown) ?
OUT: 1.5

----------
test system: Sh. flexneri 2a
Parameter: MIC (µg/mL)
Report as a plain number; the unit µg/mL is understood.

In the examples that follow, each entry is paired with its recorded MIC.
COC1(NC(=O)CSCCO)C(=O)N2C(C(=O)O)=C(CSc3nnnn3C)CSC21 (stereo not drawn) [HOCH2 CH2 S]; 3.1
COC1(NC(=O)COc2ccon2)C(=O)N2C(C(=O)O)=C(CSc3nnnn3C)CSC21 (stereo not drawn); 3.1
COC1(NC(=O)CS(=O)(=O)CCC#N)C(=O)N2C(C(=O)O)=C(CSc3nnnn3C)CSC21 (stereo not drawn) [NCCH2 CH2 SO2]; 3.1
COC1(NC(=O)C[n+]2cc([O-])on2)C(=O)N2C(C(=O)O)=C(CSc3nnnn3C)CSC21 (stereo not drawn); 1.5
COC1(NC(=O)CSc2ccon2)C(=O)N2C(C(=O)O)=C(COC(C)=O)CSC21 (stereo not drawn); 6.2

Okay, now this compound:
IN: Requested field: MIC. Item: COC1(NC(=O)CSCN=[N+]=[N-])C(=O)N2C(C(=O)O)=C(CSc3nnnn3C)CSC21 (stereo not drawn) [N3 CH2 S]
OUT: 1.5

----------
Target or system E. coli NIHJ; recorded quantity MIC.
Report as a plain number; the unit µg/mL is understood.

In the examples that follow, each entry is paired with its recorded MIC.
COC1(NC(=O)CSCCO)C(=O)N2C(C(=O)O)=C(CSc3nnnn3C)CSC21 (stereo not shown); 1.5
COC1(NC(=O)CSc2ccon2)C(=O)N2C(C(=O)O)=C(CSc3nnnn3C)CSC21 (stereo not shown); 3.1
CO[C@@]1(NC(=O)CSCN=[N+]=[N-])C(=O)N2C(C(=O)O)=C(COC(N)=O)CS[C@@H]21; 3.1

Okay, now this compound:
IN: Under E. coli NIHJ: MIC value of COC1(NC(=O)Cc2ccccc2)C(=O)N2C(C(=O)O)=C(COC(N)=O)CSC21 (stereo not shown) [C6 H5, reference compound] ?
OUT: 25

----------
Target or system E. coli NIHJ; recorded quantity MIC.
Report as a plain number; the unit µg/mL is understood.

In the examples that follow, each entry is paired with its recorded MIC.
COC1(NC(=O)COc2ccon2)C(=O)N2C(C(=O)O)=C(CSc3nnnn3C)CSC21 (stereo not drawn); 3.1
CC(=O)OCC1=C(C(=O)O)N2C(=O)[C@@H](NC(=O)Cc3cccs3)[C@H]2SC1 [Cephalothin, reference compound]; 6.2
COC1(NC(=O)CS(=O)(=O)CCC#N)C(=O)N2C(C(=O)O)=C(CSc3nnnn3C)CSC21 (stereo not drawn); 1.5

IN: Under E. coli NIHJ: MIC value of `CCS(=O)(=O)CC(=O)N[C@]1(OC)C(=O)N2C(C(=O)O)=C(CSc3nnnn3C)CS[C@@H]21` ?
OUT: 1.5

IN: Under E. coli NIHJ: MIC value of COC1(NC(=O)C[n+]2cc([O-])on2)C(=O)N2C(C(=O)O)=C(CSc3nnnn3C)CSC21 (stereo not drawn) ?
OUT: 1.5

IN: Under E. coli NIHJ: MIC value of COC1(NC(=O)CSCN=[N+]=[N-])C(=O)N2C(C(=O)O)=C(CSc3nnnn3C)CSC21 (stereo not drawn) ?
OUT: 3.1

----------
test system: Salm. ent. Gaertner; test: Minimum inhibitory concentration, Salm. ent. Gaertner; assay type: cell-based; details: Salm. ent. Gaertner; read-out: Minimum Inhibitory Concentration
Parameter: MIC (mg/L)
Report as a plain number; the unit mg/L is understood.

In the examples that follow, each entry is paired with its recorded MIC.
CO[C@@]1(NC(=O)CSCN=[N+]=[N-])C(=O)N2C(C(=O)O)=C(COC(N)=O)CS[C@@H]21; 1.5
C#CCSCC(=O)NC1(OC)C(=O)N2C(C(=O)O)=C(CSc3nnnn3C)CSC21 (centres unmarked); 0.8

IN: Under Salm. ent. Gaertner: MIC value of `CCS(=O)(=O)CC(=O)N[C@]1(OC)C(=O)N2C(C(=O)O)=C(CSc3nnnn3C)CS[C@@H]21` ?
OUT: 0.8

IN: Under Salm. ent. Gaertner: MIC value of COC1(NC(=O)CS(C)(=O)=O)C(=O)N2C(C(=O)O)=C(CSc3nnnn3C)CSC21 (centres unmarked) ?
OUT: 0.4

IN: Under Salm. ent. Gaertner: MIC value of COC1(NC(=O)CSCN=[N+]=[N-])C(=O)N2C(C(=O)O)=C(CSc3nnnn3C)CSC21 (centres unmarked) ?
OUT: 0.8

----------
system: Klebsiella 846
Parameter: MIC (µg/mL)
Report as a plain number; the unit µg/mL is understood.

In the examples that follow, each entry is paired with its recorded MIC.
COC1(NC(=O)CS(C)(=O)=O)C(=O)N2C(C(=O)O)=C(CSc3nnnn3C)CSC21 (stereo not shown); 400
COC1(NC(=O)CS(=O)(=O)CCC#N)C(=O)N2C(C(=O)O)=C(CSc3nnnn3C)CSC21 (stereo not shown); 200

Okay, now this compound:
IN: Under Klebsiella 846: MIC value of C#CCSCC(=O)NC1(OC)C(=O)N2C(C(=O)O)=C(CSc3nnnn3C)CSC21 (stereo not shown) ?
OUT: 400

Where do these numbers come from? They come from patent US4007177A.
